assay: Caco‐2 cell permeability; settings: human, Caco-2, pH 7.4
endpoint label: Papp A→B at 2 h, 10 µM (×10⁻⁶ cm/s)
Record the value in ×10⁻⁶ cm/s, omitting the unit from your answer.

Task item: Give the measured Papp A→B at 2 h, 10 µM of `O=C(OC(C(F)(F)F)C(F)(F)F)N1CCC(Cn2ccc3cccnc32)CC1` .
Reply: 10

Task item: Give the measured Papp A→B at 2 h, 10 µM of `O=C(OC(C(F)(F)F)C(F)(F)F)N1CCC(CCn2cnc3ccccc32)CC1` .
Reply: 12.6

###

Target: UniProt P97612
Sequence (P97612 1-579): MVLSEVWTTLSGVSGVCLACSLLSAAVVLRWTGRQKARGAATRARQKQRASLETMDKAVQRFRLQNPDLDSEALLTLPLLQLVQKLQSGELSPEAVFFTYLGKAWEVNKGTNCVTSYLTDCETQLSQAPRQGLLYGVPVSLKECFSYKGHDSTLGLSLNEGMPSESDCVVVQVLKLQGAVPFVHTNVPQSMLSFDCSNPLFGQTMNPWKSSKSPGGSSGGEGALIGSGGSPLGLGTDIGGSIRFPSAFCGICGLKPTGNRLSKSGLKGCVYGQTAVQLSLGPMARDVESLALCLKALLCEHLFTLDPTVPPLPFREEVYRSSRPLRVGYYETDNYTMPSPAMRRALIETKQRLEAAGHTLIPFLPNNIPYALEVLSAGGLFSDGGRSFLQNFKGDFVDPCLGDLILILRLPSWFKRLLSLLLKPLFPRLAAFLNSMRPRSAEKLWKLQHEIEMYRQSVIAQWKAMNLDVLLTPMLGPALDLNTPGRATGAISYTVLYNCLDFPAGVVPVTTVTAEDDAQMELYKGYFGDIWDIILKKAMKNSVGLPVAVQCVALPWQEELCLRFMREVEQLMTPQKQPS
endpoint label: pIC50
Conceptually, pIC50 converts a concentration in mol/L into minus its log10.

Task item: Give the measured pIC50 of O=C(OC(C(F)(F)F)C(F)(F)F)N1CCC(CCn2ccc3ccccc32)CC1 [Compound 66] .
Reply: 5.68

Task item: Give the measured pIC50 of O=C(OC(C(F)(F)F)C(F)(F)F)N1CCC(CCn2ccc3c(F)cccc32)CC1 [Compound 69] .
Reply: 5.60

Task item: Give the measured pIC50 of O=C(OC(C(F)(F)F)C(F)(F)F)N1CCC(CCCn2ccc3ccc(F)cc32)CC1 [Compound 28] .
Reply: 5.20

Task item: Give the measured pIC50 of O=C(OC(C(F)(F)F)C(F)(F)F)N1CCC(CCn2ccc3ccc(F)cc32)CC1 [Compound 24] .
Reply: 6.00

###

experiment: Metabolic stability in porcine liver S9 fraction; assay type: in vitro ADME; details: percent of parent remaining after 30 min at 37 °C; mean ± SD, n=3
endpoint label: Porcine liver S9 fraction Stability

Task item: Give the measured Porcine liver S9 fraction Stability of `O=C(OC(C(F)(F)F)C(F)(F)F)N1CCC(Cn2ccc3cccnc32)CC1` .
Reply: 75±8%

Task item: Give the measured Porcine liver S9 fraction Stability of NC(=O)c1cccc(-c2cccc(OC(=O)NC3CCCCC3)c2)c1 [URB597, reference compound] .
Reply: 80±4%

Task item: Give the measured Porcine liver S9 fraction Stability of `O=C(NCCCCCCn1ccc2ccc(F)cc21)OC(C(F)(F)F)C(F)(F)F` .
Reply: 69±5%

Task item: Give the measured Porcine liver S9 fraction Stability of `O=C(OC(C(F)(F)F)C(F)(F)F)N1CCC(Cn2ccc3ccc(F)cc32)CC1` .
Reply: 75±3%

Task item: Give the measured Porcine liver S9 fraction Stability of `O=C(OC(C(F)(F)F)C(F)(F)F)N1CCC(CCn2ccc3ccc(F)cc32)CC1` .
Reply: 68±7%

Task item: Give the measured Porcine liver S9 fraction Stability of `O=C(OC(C(F)(F)F)C(F)(F)F)N1CCC(CCn2cnc3ccccc32)CC1` .
Reply: 82±7%

Task item: Give the measured Porcine liver S9 fraction Stability of O=C(OC(C(F)(F)F)C(F)(F)F)N1CCN(Cc2ccc(C(F)(F)F)cc2N2CCCC2)CC1 [ABX‐1431, reference compound] .
Reply: 81±3%

Task item: Give the measured Porcine liver S9 fraction Stability of `O=C(NCCCCCn1ccc2ccc(F)cc21)OC(C(F)(F)F)C(F)(F)F` .
Reply: 72±5%
